Known %Inh of a selection of compounds
# System: CDK5;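 note: KINOMEscan kinase panel screen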
# experimentalParameters: concentration: 1 μM, replicates: in singlicate; n = 1
Report the value in % with no unit label.

Cc1cc(N2Cc3ccccc3C2)nc(Nc2ccc(S(=O)(=O)N3CCOCC3)cc2)n1.Cl = 0
COc1cc2nccc(Nc3ccc(NC(=O)c4ccc(C)cc4)c(O)c3)c2cc1OC.Cl = 0
O=S(=O)(c1ccc(-c2ccnc3[nH]ccc23)cc1)N1CCCC1 = 0
COc1ccccc1CNC(=O)c1cc(C(=O)c2ccccc2C)c[nH]1 = 9
O=C(Nc1n[nH]c2nc(-c3nccs3)c(Br)cc12)C1CCCC1 = 0

So what's the measured %Inh for this one? `COc1cccc(-c2cc(-c3c[nH]nc3-c3ccccn3)ccn2)c1`
0
